Reference source for all entries: patent US20230272051A1

Assign kon to each entry below.
assayed target: T1, SARS-CoV-2 Receptor Binding Domain (RBD) protein (SARS-CoV-2, UniProt P0DTC2 319-541)
T1 construct: also called Sars-Cov-2 (COV2)
assay protocol: SPR (Carterra LSA); scFv captured by anti-V5, RBD as analyte
Just the number plus its unit, please.

Tell me its kon given COVID19_P14_C01 (scFv, V domains shown) VH: QVQLVQSGAEVKKPGSSVKVSCKASGYTFSDFYLHWVRQAPGQGLEWMGGITPIFGTANYAQKFQGRVTITADESTSTAYMELSSLRSEDTAVYYCAMETVMGGMDVWGQGTLVTVSS VL: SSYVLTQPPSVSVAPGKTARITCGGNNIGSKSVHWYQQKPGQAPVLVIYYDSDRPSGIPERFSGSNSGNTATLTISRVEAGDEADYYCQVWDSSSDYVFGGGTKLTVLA as the entry.
158000 M⁻¹ s⁻¹

Tell me its kon given COVID19_P13_H07 (scFv, V domains shown) VH: QVQLVQSGAEVKKPGSSVKVSCKASGYTFINYDINWVRQAPGQGLEWMGGITPIFGTAKYAQKFQGRVTITADESTSTAYMELSSLRSEDTAVYYCARDTVMGGMDVWGQGTLVTVSS VL: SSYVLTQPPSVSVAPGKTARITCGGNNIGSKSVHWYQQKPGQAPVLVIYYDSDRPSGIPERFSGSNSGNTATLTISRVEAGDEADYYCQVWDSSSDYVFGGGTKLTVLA as the entry.
160000 M⁻¹ s⁻¹

Tell me its kon given COVID19_P02_C07 (scFv, V domains shown) VH: QVQLVQSGAEVKKPGSSVKVSCKASGYTFSSYYIHWVRQAPGQGLEWMGGIIPIFGEAEYAHKFQGRVTITADESTSTAYMELSSLRSEDTAVYYCAMETVMGGMDVWGQGTLVTVSS VL: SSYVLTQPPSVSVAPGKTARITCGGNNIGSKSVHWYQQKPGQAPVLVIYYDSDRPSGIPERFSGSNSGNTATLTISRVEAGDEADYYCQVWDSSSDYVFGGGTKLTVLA as the entry.
642000 M⁻¹ s⁻¹

Tell me its kon given COVID19_P14_D11 (scFv, V domains shown) VH: QVQLVQSGAEVKKPGSSVKVSCKASGYTFNRFAMTWVRQAPGQGLEWMGTINPSGGSTIYTQRFQGRVTITADESTSTAYMELSSLRSEDTAVYYCGHDTVMGGMGEWGQGTLVTVSS VL: SSYVLTQPPSVSVAPGKTARITCGGNNIGSKSVHWYQQKPGQAPVLVIYYDSDRPSGIPERFSGSNSGNTATLTISRVEAGDEADYYCQSTDSSSDYVFGGGTKLTVLA as the entry.
205000 M⁻¹ s⁻¹

Tell me its kon given COVID19_P01_E06 (scFv, V domains shown) VH: QVQLVQSGAEVKKPGSSVKVSCKASGCTFTRFTMHWVRQAPGQGLEWMGGITPIFGITNYAQKFQGRVTITADESTSTAYMELSSLRSEDTAVYYCAHDTVMGGMEEWGQGTLVTVSS VL: SSYVLTQPPSVSVAPGKTARITCGGNNIGSKSVHWYQQKPGQAPVLVIYYDSDRPSGIPERFSGSNSGNTATLTISRVEAGDEADYYCQVWDSSNDYVFGGGTKLTVLA as the entry.
242000 M⁻¹ s⁻¹

Tell me its kon given COVID19_P13_G12 (scFv, V domains shown) VH: QVQLVQSGAEVKKPGSSVKVSCKASGYTFINYEIHWVRQAPGQGLEWMGGITPIFGTANYAQKFQGRVTITADESTSTAYMELSSLRSEDTAVYYCARDTVMGGMDVWGQGTLVTVSS VL: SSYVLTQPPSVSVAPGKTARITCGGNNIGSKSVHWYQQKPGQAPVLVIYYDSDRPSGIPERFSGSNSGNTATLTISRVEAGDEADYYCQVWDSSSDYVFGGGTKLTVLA as the entry.
140000 M⁻¹ s⁻¹

Tell me its kon given COVID19_P01_E12 (scFv, V domains shown) VH: QVQLVQSGAEVKKPGSSVKVSCKASGYTFTTYDINWVRQAPGQGLEWMGWINPNSGGTNYAQKFQGRVTITADESTSTAYMELSSLRSEDTAVYYCARDTYWGGMDVWGQGTLVTVSS VL: SSYVLTQPPSVSVAPGKTARITCGGNNIGSKSVHWYQQKPGQAPVLVIYDDSDRPSGIPERFSGSNSGNTATLTISRVEAGDEADYYCQVWDSSSFYVFGGGTKLTVLA as the entry.
331000 M⁻¹ s⁻¹

Tell me its kon given COVID19_P14_E07 (scFv, V domains shown) VH: QVQLVQSGAEVKKPGSSVKVSCKASGYTFINYDINWVRQAPGQGLEWMGGITPIFGTANYAQKFQGRVTITADESTSTAYMELSSLRSEDTAVYYCARDTVMGGMDVWGQGTLVTVSS VL: SSYVLTQPPSVSVAPGKTARITCGGNNIGSKSVHWYQQKPGQAPVLVIYYDSDRPSGIPERFSGSNSGNTATLTISRVEAGDEADYYCQVWDSHSDYVFGGGTKLTVLA as the entry.
137000 M⁻¹ s⁻¹

Tell me its kon given COVID19_P14_C12 (scFv, V domains shown) VH: QVQLVQSGAEVKKPGSSVKVSCKASGYTFTTYDINWVRQAPGQGLEWMGIIDPIGGTTNYAQKFQGRVTITADESTSTAYMELSSLRSEDTAVYYCARDTVGFGMDVWGQGTLVTVSS VL: SSYVLTQPPSVSVAPGKTARITCGGNNIGSKSVHWYQQKPGQAPVLVIYDDSDRPSGIPERFSGSNSGNTATLTISRVEAGDEADYYCQVWDSSSLYVFGGGTKLTVLA as the entry.
93000 M⁻¹ s⁻¹

Tell me its kon given COVID19_P14_F06 (scFv, V domains shown) VH: QVQLVQSGAEVKKPGSSVKVSCKASGGTFSSFAIIWVRQAPGQGLEWMALINPSSGTTSYAQKFQGRVTITADESTSTAYMELSSLRSEDTAVYYCARETVMGGMDVWGQGTLVTVSS VL: SSYVLTQPPSVSVAPGKTARITCGGNNIGSKSVHWYQQKPGQAPVLVIYYDSDRPSGIPERFSGSNSGNTATLTISRVEAGDEADYYCQVWDSSSHYVFGGGTKLTVLA as the entry.
49700 M⁻¹ s⁻¹
